Assay explanation: protein stability index of a GFP-peptide fusion (GPS, HEK-293T) (PSI 1-6); higher = more stable;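 also: 24-mer peptide tiles fused after GFP, lentivirally expressed, FACS-sorted into six equal bins by GFP/DsRed ratio, decoded by Illumina sequencing, PSI is the read-weighted mean bin number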
Test context: treatment: DMSO; c terminus: a fixed tail appended
Assay endpoint: protein stability index
Answers are plain numbers.

Known results for sequences:
>>> result("GPLGDQLHAQLRDLTSSSSDELSW [ELF3]")
4.04
>>> result("DTGEEEEGGDESDLSSESSIKKKF [EHMT1]")
5.46
>>> result("VWWVSQFVKYLIRPQPWLEKEIEE [FUT8]")
2.32
>>> result("STLPRSGSSGGQQPSGMKEGVKRY [CHCHD6]")
4.49
>>> result("TLEITLKDIVQTVRSRLEEAGIKV [TENT5C]")
2.02
>>> result("SEMECQNQEYKMLLDIKTRLEQEI [KRT13]")
3.72

For each listed entry, give its protein stability index.
1. LDNNASASGNATQTESGSEEVSST [C10orf62]
2. MDEKVFTKELDQWIEQLNECKQLS [PPP2CA]
3. DASSSTSTSSSFPSSFPSSSSSSS [MAGEA10]
4. EKPYGCSECGKAFPRKSELTEHQR [ZNF649]
5. EDDWPRDVSLPRGAFPPRGPRPVQ [CDK4]
6. APDSGRSAPYSAAFLELPHGSGGS [TBX6]
7. VGFRLCNSTGGDCFYRGYTSGVAA [SCNN1D]

5.7
4.15
5.07
3.95
4.57
4.3
2.01
